System: chimeric Caspase-9 polypeptide
Sequence (as listed by the source, change not shown): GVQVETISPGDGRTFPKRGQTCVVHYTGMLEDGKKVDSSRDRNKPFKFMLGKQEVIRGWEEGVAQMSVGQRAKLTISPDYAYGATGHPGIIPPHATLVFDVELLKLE
experiment summary: Caspase mutant classes and basal activity (Table 3)
Type: cell-based, human
assay conditions: class heading of Table 3
experimental readout: Basal Activity

molecule: D330A-Y153F (protein) GFGDVGALESLRGNADLAFILSMEPCGHCLIINNVNFCRESGLRTRTGSNIDCEKLRRRFSSLHFMVEVKGDLTAKKMVLALLELAQQDHGALDCCVVVILSHGCQASHLQFPGAVYGTDGCPVSVEKIVNIFNGTSCPSLGGKPKLFFIQACGGEQKDHGFEVASTSPEDESPGSNPEPDATPFQEGLRTFDQLAAISSLPTPSDIFVSYSTFPGFVSWRDPKSGSWYVETLDDIFEQWAHSEDLQSLLLRVANAVSVKGIYKQMPGCFNFLRKKLFFKTS
observed result: dead

molecule: D330A-T317E (protein) GFGDVGALESLRGNADLAYILSMEPCGHCLIINNVNFCRESGLRTRTGSNIDCEKLRRRFSSLHFMVEVKGDLTAKKMVLALLELAQQDHGALDCCVVVILSHGCQASHLQFPGAVYGTDGCPVSVEKIVNIFNGTSCPSLGGKPKLFFIQACGGEQKDHGFEVASTSPEDESPGSNPEPDAEPFQEGLRTFDQLAAISSLPTPSDIFVSYSTFPGFVSWRDPKSGSWYVETLDDIFEQWAHSEDLQSLLLRVANAVSVKGIYKQMPGCFNFLRKKLFFKTS
observed result: dead
